- Experiment summary: Volume of distribution at steady state in dog
- Assay type: ADME, organism-based, Canis lupus familiaris
- Assay context: in vivo, read-out: Vdss
Measured parameter: Vd

Known Vd results, listed for orientation:
Molecule: C[C@@H]1CN(Cc2ccc(F)cc2)[C@@H](C)CN1C(=O)COc1ccc(Cl)cc1CS(=O)(=O)O
Observed value: 0.4 L/kg
--
Molecule: C[C@@H]1CN(Cc2ccc(F)cc2)[C@@H](C)CN1C(=O)COc1ccc(Cl)cc1C(=O)O
Observed value: 0.2 L/kg
--
Molecule: C[C@@H]1CN(Cc2ccc(F)cc2)[C@@H](C)CN1C(=O)COc1ccc(Cl)cc1C(=O)CCC(=O)O
Observed value: 4.2 L/kg

Query: If you can, please state the reported Vd value of "C[C@@H]1CN(Cc2ccc(F)cc2)[C@@H](C)CN1C(=O)COc1ccc(Cl)cc1CC(=O)O" .
Reply: 0.3 L/kg

Query: Report Vd for C[C@@H]1CN(Cc2ccc(F)cc2)CCN1C(=O)COc1ccc(Cl)cc1NC(N)=O [BX 471 FREE BASE] please.
Reply: 0.6 L/kg

Where do these numbers come from? They come from ChEMBL document CHEMBL1147927.
